From: paper PMC4336329

# system: human ether-à-go-go-related gene (hERG) potassium channel (human, UniProt Q12809)
# Sequence (Q12809 whole entry, looked up): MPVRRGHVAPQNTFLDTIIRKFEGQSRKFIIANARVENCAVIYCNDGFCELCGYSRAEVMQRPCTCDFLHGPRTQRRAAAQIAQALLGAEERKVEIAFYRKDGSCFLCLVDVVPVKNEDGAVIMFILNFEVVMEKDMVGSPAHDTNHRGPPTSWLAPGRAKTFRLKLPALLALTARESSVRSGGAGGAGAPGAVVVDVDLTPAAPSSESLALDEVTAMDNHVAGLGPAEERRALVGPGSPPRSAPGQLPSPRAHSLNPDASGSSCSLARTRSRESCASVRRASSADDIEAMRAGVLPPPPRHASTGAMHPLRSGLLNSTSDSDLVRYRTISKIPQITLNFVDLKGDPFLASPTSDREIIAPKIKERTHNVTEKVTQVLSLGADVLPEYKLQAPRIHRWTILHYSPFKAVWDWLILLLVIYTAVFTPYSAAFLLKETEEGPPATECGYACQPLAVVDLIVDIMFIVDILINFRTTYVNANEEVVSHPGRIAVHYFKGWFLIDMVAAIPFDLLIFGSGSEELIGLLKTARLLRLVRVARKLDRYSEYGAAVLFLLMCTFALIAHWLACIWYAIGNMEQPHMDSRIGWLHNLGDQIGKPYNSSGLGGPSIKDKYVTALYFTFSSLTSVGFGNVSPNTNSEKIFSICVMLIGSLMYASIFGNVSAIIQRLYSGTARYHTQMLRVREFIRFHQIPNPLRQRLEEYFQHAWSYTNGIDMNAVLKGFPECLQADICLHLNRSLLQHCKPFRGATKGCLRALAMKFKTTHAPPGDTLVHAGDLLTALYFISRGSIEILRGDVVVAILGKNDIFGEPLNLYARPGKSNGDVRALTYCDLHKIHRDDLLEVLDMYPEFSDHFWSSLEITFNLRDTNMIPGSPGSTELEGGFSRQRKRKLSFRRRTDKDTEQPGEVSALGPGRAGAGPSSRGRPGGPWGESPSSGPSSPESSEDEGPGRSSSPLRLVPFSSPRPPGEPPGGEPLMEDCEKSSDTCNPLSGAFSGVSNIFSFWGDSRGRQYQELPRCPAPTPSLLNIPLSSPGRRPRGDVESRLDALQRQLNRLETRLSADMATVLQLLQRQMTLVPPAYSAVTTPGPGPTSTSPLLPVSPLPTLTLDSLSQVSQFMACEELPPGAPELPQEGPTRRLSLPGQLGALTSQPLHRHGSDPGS
# measurementProtocol: primary screen, population patch clamp on CHO cells stably expressing hERG; higher = less effect of the substance
Among all 310,000 compounds or so, about 14,000 (4.5%) showed an effect of 50% or more. Effects have a minus sign here. The sample holds strong results, similar compounds and a random draw of the others, so the mix is not that of the screen.
Exercise: for every item that follows, state its recorded hERG current change (%, negative = inhibition) at 10uM.
# answer = value followed by unit

Param request: hERG current change (%, negative = inhibition) at 10uM | system human ether-à-go-go-related gene (hERG) potassium channel (human, UniProt Q12809) | item CS(=O)(=O)c1ccc(-c2cc(Br)sc2-c2ccc(F)cc2)cc1
16.4%

Param request: hERG current change (%, negative = inhibition) at 10uM | system human ether-à-go-go-related gene (hERG) potassium channel (human, UniProt Q12809) | item CC(=O)c1c(-c2ccc(C)cc2)nc2c3ccccc3ccn12
10.2%

Param request: hERG current change (%, negative = inhibition) at 10uM | system human ether-à-go-go-related gene (hERG) potassium channel (human, UniProt Q12809) | item COc1cc(CN2CCN(CCCc3ccccc3)C(CCO)C2)cc(OC)c1O (stereo not drawn)
-61.5%

Param request: hERG current change (%, negative = inhibition) at 10uM | system human ether-à-go-go-related gene (hERG) potassium channel (human, UniProt Q12809) | item COc1ccc(CN2CCN(Cc3ccccc3)C(CCO)C2)cc1OC (stereo not drawn)
-30.7%

Param request: hERG current change (%, negative = inhibition) at 10uM | system human ether-à-go-go-related gene (hERG) potassium channel (human, UniProt Q12809) | item CC(OC(=O)CCN1C(=O)c2cccc([N+](=O)[O-])c2C1=O)C(=O)Nc1cc(Cl)cc(Cl)c1 (stereo not drawn)
-68.6%

Param request: hERG current change (%, negative = inhibition) at 10uM | system human ether-à-go-go-related gene (hERG) potassium channel (human, UniProt Q12809) | item COc1ccc(C2CC(c3ccccc3)Nc3nc(N)nn32)cc1 (stereo not drawn);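 note: peak tail current of the secondary pulse compared with the same well before compound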
-25%

Param request: hERG current change (%, negative = inhibition) at 10uM | system human ether-à-go-go-related gene (hERG) potassium channel (human, UniProt Q12809) | item COc1ccc(N(C)C(=O)c2cnc(N3CCN(c4ncccn4)CC3)c3ccccc23)cc1;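 note: peak tail current of the secondary pulse compared with the same well before compound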
-11.8%

Param request: hERG current change (%, negative = inhibition) at 10uM | system human ether-à-go-go-related gene (hERG) potassium channel (human, UniProt Q12809) | item COc1cccc(NC(=O)CCN2C(=O)c3cccc([N+](=O)[O-])c3C2=O)c1;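 note: peak tail current of the secondary pulse compared with the same well before compound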
-3.85%

Param request: hERG current change (%, negative = inhibition) at 10uM | system human ether-à-go-go-related gene (hERG) potassium channel (human, UniProt Q12809) | item CC(C)NC(=O)CN1C(=O)CSc2ccc(S(=O)(=O)N3CCCC3)cc21;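 note: peak tail current of the secondary pulse compared with the same well before compound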
15.6%
